Target: AHR (UniProt P35869)
Construct: IC50
Assay: DRE-Luciferase Reporter Assay (Alternate Method) (Example 1B)
Type: cell-based, murine or human
Settings: cell line and AHR activating ligand not specified
Procedure: AHR binds to Dioxin Responsive Elements (DRE) upstream of genes that it activates. One measure of AHR activity is activation of a reporter gene, such as luciferase, downstream of one or multiple DRE elements. […] Cells were incubated for 4, 15 or 24 hours or another time point and then lysed for determination of luciferase activity as a read-out of the AHR activation or inhibition. […] IC50 values were determined as the concentration which inhibits half of the luciferase activity.
pIC50: −log10 of the molar value.
Property: pIC50; scope: individual compounds

Compound: CC(C)c1cnn2c(N[C@H]3Cc4ccc(O)cc4C3)cc(-c3cncc(F)c3)nc12 [I-220]
Study System: AHR (UniProt P35869)
pIC50: > 6.30
--
Compound: CC(C)Oc1cc(NCCc2c[nH]c3ccccc23)nc(-c2cncc(F)c2)n1 [I-21]
Study System: AHR (UniProt P35869)
pIC50: > 6.30
--
Compound: NC(=O)c1cnn2c(NC3CCc4[nH]c5c(F)cccc5c4C3)cc(-c3cncc(F)c3)nc12 (centres unmarked) [I-231]
Study System: AHR (UniProt P35869)
pIC50: < 5.82
--
Compound: CC(C)n1cnc2c(NCCc3c[nH]c4ccccc34)nc(-c3cncc(F)c3)nc21 [I-6]
Study System: AHR (UniProt P35869)
pIC50: > 6.30
--
Compound: CC(C)Oc1nc(N[C@@H]2CCc3[nH]c4ccccc4c3C2)nc(-c2cncc(F)c2)n1 [I-135]
Study System: AHR (UniProt P35869)
pIC50: > 6.30
--
Compound: Cc1cnn2c(N[C@H]3CCc4[nH]c5c(F)cc(F)cc5c4C3)cc(-c3cncc(F)c3)nc12 [I-243b]
Study System: AHR (UniProt P35869)
pIC50: < 5.82
--
Compound: Cc1cnn2c(NCCc3c[nH]c4ccc(O)cc34)cc(-c3cncc(F)c3)nc12 [I-215]
Study System: AHR (UniProt P35869)
pIC50: < 5.82
--
Compound: Fc1cncc(-c2nc(NCCc3c[nH]c4ccccc34)cc(N3CCNCC3)n2)c1 [I-60]
Study System: AHR (UniProt P35869)
pIC50: 6.00 to 6.30
--
Compound: Fc1cncc(-c2nc(NCCc3c[nH]c4ccccc34)cc(N3CCOCC3)n2)c1 [I-64]
Study System: AHR (UniProt P35869)
pIC50: > 6.30
--
Compound: Cc1c(-c2cncc(F)c2)nc2c(C)cnn2c1N[C@@H]1CCc2[nH]c3ccccc3c2C1 [I-157]
Study System: AHR (UniProt P35869)
pIC50: < 5.82
--
Compound: CC(C)c1cnc2c(N[C@@H]3CCc4[nH]c5ccccc5c4C3)nc(-c3cncc(F)c3)cn12 [I-30]
Study System: AHR (UniProt P35869)
pIC50: > 6.30
--
Compound: Cc1cnn2c(N[C@@H](Cc3c[nH]c4ccccc34)C(=O)N(C)C)cc(-c3cncc(F)c3)nc12 [I-187b]
Study System: AHR (UniProt P35869)
pIC50: < 5.82
--
Compound: Cc1cnn2c(NCC(C)(C)c3c[nH]c4ccccc34)cc(-c3cncc(F)c3)nc12 [I-170]
Study System: AHR (UniProt P35869)
pIC50: < 5.82
--
Compound: Fc1cncc(-c2nc(NCCc3c[nH]c4ccccc34)c3ncccc3n2)c1 [I-257]
Study System: AHR (UniProt P35869)
pIC50: > 6.30

meta.source: patent US11358969B2
